Please go through the items and note down their log10 of MIC.
tested on: Cyberlindnera jadinii; assay: Antifungal activity against Candida utilis after 24 hrs by two-fold serial dilution assay; type: functional
// units: µM (pre-log); metric: MIC; scale: log10

Data request: # lookup: log10 of MIC of COc1cc(-c2nc3ccccc3n2Cc2ccc(F)cc2)c2c(c1O)CN1CCc3cc4c(cc3C1C2)OCO4.Cl (stereo not drawn)
Data returned: 2.26

Data request: # lookup: log10 of MIC of COc1cc(-c2nc3ccccc3n2Cc2ccccc2F)c2c(c1O)CN1CCc3cc4c(cc3C1C2)OCO4.Cl (stereo not drawn)
Data returned: 1.10

Data request: # lookup: log10 of MIC of COc1cc(-c2nc3ccccc3n2Cc2cccc(F)c2)c2c(c1O)CN1CCc3cc4c(cc3C1C2)OCO4.Cl (stereo not drawn)
Data returned: 2.03

Data request: # lookup: log10 of MIC of COc1cc(-c2nc3ccccc3n2Cc2ccc(F)cc2)c2c(c1O)CN1CCc3cc4c(cc3C1C2)OCO4 (stereo not drawn)
Data returned: 1.78

Data request: # lookup: log10 of MIC of COc1cc(-c2nc3ccccc3n2CCCCCCn2c3ccccc3c3ccccc32)c2c(c1O)CN1CCc3cc4c(cc3C1C2)OCO4.Cl (stereo not drawn)
Data returned: 2.67

Data request: # lookup: log10 of MIC of COc1cc(-c2nc3ccccc3n2Cc2ccc(Cl)cc2)c2c(c1O)CN1CCc3cc4c(cc3C1C2)OCO4 (stereo not drawn)
Data returned: 1.07

Data request: # lookup: log10 of MIC of COc1cc(-c2nc3ccccc3n2Cc2cccc(F)c2)c2c(c1O)CN1CCc3cc4c(cc3C1C2)OCO4 (stereo not drawn)
Data returned: 1.69

Data request: # lookup: log10 of MIC of COc1cc(-c2nc3ccccc3n2Cc2ccc(Cl)cc2)c2c(c1O)CN1CCc3cc4c(cc3C1C2)OCO4.Cl (stereo not drawn)
Data returned: 2.73
